tested.target: P. falciparum apicoplast DNA polymerase (Pf-apPOL) (Plasmodium falciparum)
test.details: Fluorescence-based high-throughput DNA polymerase assay (molecular beacon), primary screen and dose-response
Assay type: biochemical
condition.parameters: DRC-2; concentration 5; 180'
measurement.kind: % inhibition apPOL 180' (%)
Respond with the bare value in %.

chemical.smiles	unit.label	% inhibition apPOL 180'
COc1cc(/C=C2\C(=O)N(c3ccc(C(=O)O)cc3)N=C2C(F)(F)F)ccc1OCC(C)C	%	-9

Query: Need % inhibition apPOL 180', item COc1ccc(NC(=O)Cn2nc3c(cc2=O)CCC3)cc1Cl
Response: 44

Query: Request: COc1ccc(C=C2Oc3c(ccc4c3CN(Cc3ccco3)CO4)C2=O)c(OC)c1
Response: -80

Query: Another compound: Cc1cc(C)nc(Nc2nc(CC(=O)Nc3nc(-c4ccco4)cs3)cs2)n1
Response: 0.203

Query: Now this one: O=C(Cc1cccs1)N1CCN(c2nc(CN3CCOCC3)cs2)CC1
Response: 13

Query: Try this compound too: Cc1ccnc(NS(=O)(=O)c2ccc(-n3cccc3)cc2)n1
Response: 0.78

Query: How about this compound: O=C1c2ccccc2C(=O)c2c1oc1c3c(ccc21)OCN(C1CCCC1)C3
Response: 23

Query: Further, for O=C(Nc1c2c(nn1-c1ccccc1)CSC2)c1ccco1 ?
Response: 20

###

We begin with a simple list: items and their reported % inhibition apPOL 180' 40.
tested.target: P. falciparum apicoplast DNA polymerase (Pf-apPOL) (Plasmodium falciparum, UniProt Q8ILY1)
Sequence (Q8ILY1 entry or part of it): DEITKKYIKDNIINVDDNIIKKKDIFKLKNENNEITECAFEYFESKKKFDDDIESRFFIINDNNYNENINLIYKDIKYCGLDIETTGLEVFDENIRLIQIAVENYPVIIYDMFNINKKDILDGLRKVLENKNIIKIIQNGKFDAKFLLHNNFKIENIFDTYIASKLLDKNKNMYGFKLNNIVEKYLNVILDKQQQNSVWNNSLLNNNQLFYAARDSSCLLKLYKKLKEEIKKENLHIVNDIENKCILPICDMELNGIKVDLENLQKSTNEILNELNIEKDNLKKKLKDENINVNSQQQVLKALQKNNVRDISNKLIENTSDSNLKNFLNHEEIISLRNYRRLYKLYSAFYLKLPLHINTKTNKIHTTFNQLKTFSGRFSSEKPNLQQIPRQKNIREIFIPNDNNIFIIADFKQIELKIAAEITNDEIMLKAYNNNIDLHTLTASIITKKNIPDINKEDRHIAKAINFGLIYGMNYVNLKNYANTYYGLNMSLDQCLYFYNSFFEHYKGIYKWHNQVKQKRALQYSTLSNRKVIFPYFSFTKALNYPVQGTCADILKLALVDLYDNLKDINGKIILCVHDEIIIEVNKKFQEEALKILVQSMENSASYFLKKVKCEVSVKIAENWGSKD
test.details: Fluorescence-based high-throughput DNA polymerase assay (molecular beacon), primary screen and dose-response
Format: biochemical
condition.parameters: DRC-1; read at 180'; concentration 40
Description: The HT assay employs a molecular beacon, a stem-loop DNA template with a Cy3 dye and the Black Hole Quencher on the 3′ and 5′ ends of the DNA, respectively. Pf-apPOL concentration is based on a calculated absorptivity of ε280 = 56750 M^−1 cm^−1. […] To identify apPOL inhibitors we utilised our previously developed high-throughput DNA polymerase assay. […] The assay accurately recapitulates the kinetic behaviour of apPOL, as measured through more conventional low-throughput gel-based assays. […]
Quick note: give the figure in %, leave out the unit.

Consider the worked cases shown below.
compound	% inhibition apPOL 180' 40 / %
CCCc1ccc(Oc2coc3cc(OC)ccc3c2=O)cc1	35.4665
Cn1nc(-c2nc(-c3ccccc3)no2)c2c1CCN(C(=O)Cc1cccs1)C2	45
O=C1CSC2=NC3=C(CCc4ccccc43)C(c3cccs3)N12 (stereo not shown)	46.5795

Query: Fill blank: measured % inhibition apPOL 180' 40 of the compound CC(=O)OCC1=C(C(=O)[O-])N2C(=O)[C@@H](NC(=O)Cc3cccs3)[C@H]2SC1.[Na+] is ____.
Response: 18.2499

###

tested.target: P. falciparum apicoplast DNA polymerase (Pf-apPOL) (Plasmodium falciparum)
test.details: Fluorescence-based high-throughput DNA polymerase assay (molecular beacon), primary screen and dose-response
Assay type: biochemical
condition.parameters: DRC-1; 180'; concentration 80
I would appreciate it if you labelled entries Y when % inhibition apPOL 180' is 80% or higher, otherwise N.

compound	class.label
O=C(CSc1nc2ccccc2s1)Nc1ncc([N+](=O)[O-])s1 [KU0019667]	Y
COc1ccc(C(=O)Nc2cccc(-c3nc4ncccc4o3)c2)cc1[N+](=O)[O-] [KU0063313]	N
O=c1cc(CN2CCCCC2)c2cc3c(cc2o1)OCO3 [Molecule 56, O=c1cc(CN2CCCCC2)c2c(o1)cc1c(c2)OCO1]	Y
O=C(O)CC1=NN(c2cccc([N+](=O)[O-])c2)C(=O)C1 [KU0100531]	N

Query: Does the compound O=C(Cn1ccc2c(=O)[nH]ccc21)Nc1cc(F)ccc1F [Molecule 42, O=C(Cn1ccc2c1cc[nH]c2=O)Nc1cc(F)ccc1F] have recorded % inhibition apPOL 180' that is 80% or more?
Response: N

Query: Let us now turn to COc1ccc(-c2c(C(F)(F)F)nn3c(=O)cc(-c4cccc([N+](=O)[O-])c4)[nH]c23)cc1 [Molecule 16]
Response: Y

Query: Lookup O=C(O)c1c(F)c(F)c(-c2c(F)c(F)c(C(=O)O)c(F)c2F)c(F)c1F [KU0008974]
Response: N

Query: Also need CN(C)C=CC(=O)c1ccccn1 [Molecule 64, CN(C=CC(=O)c1ccccn1)C] , thanks.
Response: N

Query: // query: Cc1ncc(CSc2nc(C(C)(C)C)cs2)c(CO)c1O [KU0264007]
Response: N

Query: Then COc1cccc(Oc2c(C(F)(F)F)oc3cc(OC(=O)N(C)C)ccc3c2=O)c1 [Molecule 52] ?
Response: N

Query: Same question, CCOc1ccccc1-c1nc(-c2ccc(=O)[nH]c2)no1 [Molecule 76, CCOc1ccccc1c1onc(n1)c1ccc(=O)[nH]c1] this time
Response: N

Query: Now consider COCC(=O)Nc1c(-c2cccc(F)c2)nc2cc(C)ccn12 [Molecule 44, COCC(=O)Nc1c(nc2n1ccc(c2)C)c1cccc(c1)F] and answer again.
Response: Y

Query: Another compound to look at: O=c1cc(-c2ccccc2Cl)oc2c(NS(=O)(=O)c3cc(Cl)cc(Cl)c3O)ccc(O)c12 [KU0104277]
Response: Y

Query: // next record CCCCCCCCCCCC1SCC(C(=O)O)N1C(C)=O (stereo not shown) [Molecule 72]
Response: Y

Query: # iterate: O=C(NC(C(Cl)Cl)S(=O)(=O)c1ccccc1)c1ccccc1 (stereo not shown) [KU0045239]
Response: N

Query: And for Cc1ccc(-n2nnc(C(=O)O)c2-c2ccccn2)c(F)c1 [Molecule 54, Cc1ccc(c(c1)F)n1nnc(c1c1ccccn1)C(=O)O] ?
Response: N
